The reported measurements were obtained from paper PMC6722823.

Here the recorded EC50 is given for each entry.
# target.or.system: T1, human P-selectin-IgG (human, UniProt P16109 42-771)
# T1 construct: P-selectin, human, fused to IgG (Fc); Captured in the wells through Fc-specific goat anti-human IgG; also called human Fc fusion protein of P-selectin; fusion protein of IgG and P-selectin; source: bought: R&D systems
# T1 sequence (looked up): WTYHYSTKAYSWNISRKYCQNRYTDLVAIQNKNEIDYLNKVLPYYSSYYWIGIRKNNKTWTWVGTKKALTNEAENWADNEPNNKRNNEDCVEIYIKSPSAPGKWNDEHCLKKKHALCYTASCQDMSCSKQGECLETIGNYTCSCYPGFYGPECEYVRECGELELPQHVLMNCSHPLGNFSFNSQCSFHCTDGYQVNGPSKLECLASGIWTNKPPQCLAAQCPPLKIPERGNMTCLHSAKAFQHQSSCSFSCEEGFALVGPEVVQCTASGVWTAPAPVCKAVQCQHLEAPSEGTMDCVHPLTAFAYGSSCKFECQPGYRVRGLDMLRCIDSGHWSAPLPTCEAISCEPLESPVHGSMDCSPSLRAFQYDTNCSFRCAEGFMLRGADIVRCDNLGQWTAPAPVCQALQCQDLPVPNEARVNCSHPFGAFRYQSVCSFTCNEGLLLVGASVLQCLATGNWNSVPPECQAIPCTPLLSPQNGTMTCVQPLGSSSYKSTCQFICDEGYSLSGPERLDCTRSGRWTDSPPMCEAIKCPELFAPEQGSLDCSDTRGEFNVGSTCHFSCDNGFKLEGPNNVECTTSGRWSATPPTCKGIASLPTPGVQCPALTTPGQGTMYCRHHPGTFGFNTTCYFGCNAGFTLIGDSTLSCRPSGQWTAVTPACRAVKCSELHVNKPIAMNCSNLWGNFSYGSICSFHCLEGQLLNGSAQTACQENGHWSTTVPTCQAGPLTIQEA
# assay.remarks: radioligand binding; displacement: P-selectin-IgG (0.3 ug/mL) captured on Fc-specific goat anti-human IgG in 96-well plates; [3H]-cholesteryl oleate-labelled Sf28 sulfatide liposomes (1 x 10^5 dpm/well) with increasing amounts of peptide; 2 h, 4 C; 20 mmol/L HEPES, 150 mmol/L NaCl, 1 mmol/L CaCl2, pH 7.4, 0.2% BSA
# condition.notes: both partners purified
recorded.metric: EC50 (µM)

{"binder": "DVEWVDVA (also called elongated EWVDV peptide)", "recorded.metric": "EC50", "units.label": "µM", "assay.value": 8}
{"binder": "CDVEWVDVSC (also called peptide antagonist; elongated EWVDV peptide)", "recorded.metric": "EC50", "units.label": "µM", "assay.value": 0.2}
